Assignment: determine reported binding relative to P54AR4-83v2 parent for the given binders.
- system: EGFR (form used in the assay not stated) (human, UniProt P00533 25-645, limits assumed)
- test.protocol: ELISA, NEM conjugate, 10 nM
One number for each entry, in ratio.

>>> experimental_result("P54AR4-83v2 V9C, NEM conjugate (designed binder, not shown: small tags and cut ends, N-ethyl maleimide (NEM) on Cys 9) LPAPKNLVCSEVTEDSARLSWDDPWAFYESFLIQYQESEKVGEAIVLTVPGSERSYDLTGLKPGTEYTVSIYGVHNVYKDTNMRGLPLSAIFTT")
0.94
>>> experimental_result("P54AR4-83v2 N6C, NEM conjugate (designed binder, not shown: small tags and cut ends, N-ethyl maleimide (NEM) on Cys 6) LPAPKCLVVSEVTEDSARLSWDDPWAFYESFLIQYQESEKVGEAIVLTVPGSERSYDLTGLKPGTEYTVSIYGVHNVYKDTNMRGLPLSAIFTT")
0.76
>>> experimental_result("P54AR4-83v2 G60C, NEM conjugate (designed binder, not shown: small tags and cut ends, N-ethyl maleimide (NEM) on Cys 60) LPAPKNLVVSEVTEDSARLSWDDPWAFYESFLIQYQESEKVGEAIVLTVPGSERSYDLTCLKPGTEYTVSIYGVHNVYKDTNMRGLPLSAIFTT")
0.86

// next item, binding relative to P54AR4-83v2 parent requested
**Q:** Find the recorded binding relative to P54AR4-83v2 parent belonging to P54AR4-83v2 L86C, NEM conjugate (designed binder, not shown: small tags and cut ends, N-ethyl maleimide (NEM) on Cys 86) LPAPKNLVVSEVTEDSARLSWDDPWAFYESFLIQYQESEKVGEAIVLTVPGSERSYDLTGLKPGTEYTVSIYGVHNVYKDTNMRGCPLSAIFTT and report it.
**A:** 0.77
